Biological target: human Acetylcholinesterase (AChE), ACHE (gene 43) (UniProt P22303)
Sequence (P22303 whole entry, looked up): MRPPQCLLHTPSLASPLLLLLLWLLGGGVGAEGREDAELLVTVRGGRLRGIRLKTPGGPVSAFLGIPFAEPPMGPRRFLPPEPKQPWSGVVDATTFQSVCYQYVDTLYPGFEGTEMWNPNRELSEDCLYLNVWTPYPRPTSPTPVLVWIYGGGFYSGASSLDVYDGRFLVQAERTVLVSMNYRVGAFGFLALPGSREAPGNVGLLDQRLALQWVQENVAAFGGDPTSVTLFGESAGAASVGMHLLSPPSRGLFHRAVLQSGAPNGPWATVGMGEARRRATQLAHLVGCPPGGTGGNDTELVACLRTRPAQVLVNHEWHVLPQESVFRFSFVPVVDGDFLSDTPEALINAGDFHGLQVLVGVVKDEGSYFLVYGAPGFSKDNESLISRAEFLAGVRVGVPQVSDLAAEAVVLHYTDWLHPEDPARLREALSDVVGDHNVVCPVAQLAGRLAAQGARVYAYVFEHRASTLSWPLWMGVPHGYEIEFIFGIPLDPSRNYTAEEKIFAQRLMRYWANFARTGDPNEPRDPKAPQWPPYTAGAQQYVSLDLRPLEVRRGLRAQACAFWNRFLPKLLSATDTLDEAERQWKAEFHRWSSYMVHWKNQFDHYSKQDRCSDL
Assay: NVS_ENZ_hAChE: NovaScreen (NVS) Enzymatic Assay for human Acetylcholinesterase (AChE) (AID 2283129)
Description: NVS_ENZ_hAChE is a biochemical, single-readout assay that uses extracted gene-proteins in a cell-free assay. Measurements were taken 0.33 hour after chemical dosing in a 96-well plate.NVS_ENZ_hAChE is one of one assay component(s) measured or calculated from the NVS_ENZ_hAChE assay. […] This assay endpoint, NVS_ENZ_hAChE, was analyzed in the positive analysis fitting direction relative to DMSO as the negative control and baseline of activity. […]
Records with an inconclusive call do not appear. Activity calls are given as the source filed them. The calls were made as follows: active = hit-call score of the fitted dose curve at least 0.9, where 1 is the maximum; inconclusive = response in the unintended direction; inactive = score below 0.9.
Labels: active, inactive

INSERT INTO results (structure_as_smiles, cat) VALUES
  ('CCNC(=O)NC(=O)C(C#N)=NOC', 'inactive'),
  ('CC1(C)CON(Cc2ccccc2Cl)C1=O', 'inactive'),
  ('COP(=S)(OC)SCn1nnc2ccccc2c1=O', 'inactive'),
  ('CNC(=O)Oc1cccc2ccccc12', 'active');

====

assay: Tanguay_ZF_120hpf_YSE_legacy: (Legacy) Oregon State University Tanguay Lab 120 Hour Post-fertilization zebrafish Assay for Yolk Sac Edema (AID 2283634)
Results filed as inconclusive are left out. The source made the active and inactive calls. Rule for the calls: active = hit-call score of the fitted dose curve at least 0.9, where 1 is the maximum; inconclusive = response in the unintended direction; inactive = score below 0.9.
Outcomes: active, inactive

INSERT INTO results (molecule, cat) VALUES
  ('CCOC(=O)C(C)OC(=O)c1cc(Oc2ccc(C(F)(F)F)cc2Cl)ccc1[N+](=O)[O-] (centres undefined)', 'inactive'),
  ('COC(=O)c1c(C(F)F)nc(C(F)(F)F)c(C2=NCCS2)c1CC(C)C', 'inactive'),
  ('COc1ccc(-c2ccccc2)cc1NNC(=O)OC(C)C', 'inactive'),
  ('CCOc1cc(C(C)(C)C)ccc1C1COC(c2c(F)cccc2F)=N1 (centres undefined)', 'inactive'),
  ('O=C1C2CC=CCC2C(=O)N1SC(Cl)(Cl)Cl (centres undefined)', 'inactive'),
  ('CC(C)=CC1C(C(=O)OCc2coc(Cc3ccccc3)c2)C1(C)C (centres undefined)', 'inactive'),
  ('CC(C)Nc1nc(Cl)nc(NC(C)C)n1', 'inactive'),
  ('COP(=S)(OC)SCn1nnc2ccccc2c1=O', 'inactive'),
  ('O=P(O)(O)CCCl', 'inactive'),
  ('CC1(C)CCC(=Cc2ccc(Cl)cc2)C1(O)Cn1cncn1 (centres undefined)', 'inactive'),
  ('COCC(C)N(C(=O)CCl)c1c(C)csc1C (centres undefined)', 'active'),
  ('CSC(=O)c1c(C(F)F)nc(C(F)(F)F)c(C(=O)SC)c1CC(C)C', 'inactive'),
  ('Cc1cc(C)nc(Nc2ccccc2)n1', 'inactive'),
  ('N#Cc1c[nH]cc1-c1cccc2c1OC(F)(F)O2', 'inactive');

====

read-out: Apoptosis regulator Bcl-2 (Homo sapiens) (UniProt P10415); assay: LTEA_HepaRG_BCL2: Life Technologies and Expression Analysis (LTEA) Assay for Bcl-2 gene using HepaRG (AID 2283475); details: mRNA level, 48 h; actives raise or lower the signal;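 also: BCL2 transcript by TaqMan qRT-PCR normalised to ACTB GAPDH and POLR2A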
Sequence (P10415 whole entry, looked up): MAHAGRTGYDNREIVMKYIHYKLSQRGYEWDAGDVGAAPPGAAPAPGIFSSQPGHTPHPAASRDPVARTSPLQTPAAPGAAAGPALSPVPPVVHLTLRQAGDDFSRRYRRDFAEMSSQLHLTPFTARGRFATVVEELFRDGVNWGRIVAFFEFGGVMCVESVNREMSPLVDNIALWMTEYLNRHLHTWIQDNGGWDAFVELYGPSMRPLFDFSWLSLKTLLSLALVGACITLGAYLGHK
Activity calls are given as the source filed them. The calls were made as follows: active = hit-call score of the fitted dose curve at least 0.9, where 1 is the maximum; inactive = score below 0.9.
Classes used: active, inactive

INSERT INTO results (compound, cat) VALUES
  ('Cc1ccc(N=CN(C)C=Nc2ccc(C)cc2C)c(C)c1', 'inactive'),
  ('Cc1cnc(C2=NC(C)(C(C)C)C(=O)N2)c(C(=O)O)c1 (stereo not drawn)', 'inactive'),
  ('CNC(=O)N(C)c1nnc(C(C)(C)C)s1', 'inactive'),
  ('CCCCOCN(C(=O)CCl)c1c(CC)cccc1CC', 'inactive'),
  ('COCC(=O)N(c1c(C)cccc1C)C(C)C(=O)OC (stereo not drawn)', 'inactive'),
  ('CC(C)(C)C(=O)C(Oc1ccc(Cl)cc1)n1cncn1 (stereo not drawn)', 'inactive'),
  ('COc1cc(OC)nc(NC(=O)NS(=O)(=O)c2ncccc2OCC(F)(F)F)n1', 'inactive'),
  ('N#CN=C1SCCN1Cc1ccc(Cl)nc1', 'inactive'),
  ('CCN(CC)C(=O)C(C)Oc1cccc2ccccc12 (stereo not drawn)', 'inactive'),
  ('CCCCC(C#N)(Cn1cncn1)c1ccc(Cl)cc1 (stereo not drawn)', 'inactive'),
  ('COc1ccc(-c2ccccc2)cc1NNC(=O)OC(C)C', 'inactive'),
  ('Cc1nc(N(C)C)nc(OC(=O)N(C)C)c1C', 'inactive'),
  ('COP(=O)(OC)O/C(C)=C/C(=O)N(C)C', 'inactive'),
  ('COC(=O)c1c(C(F)F)nc(C(F)(F)F)c(C2=NCCS2)c1CC(C)C', 'inactive'),
  ('Cn1c(-c2ccccc2)cc(-c2ccccc2)[n+]1C', 'active'),
  ('CCCC(=NOCC)C1=C(O)CC(CC(C)SCC)CC1=O (stereo not drawn)', 'inactive'),
  ('CCOP(=O)(OCC)Oc1nc(Cl)c(Cl)cc1Cl', 'active'),
  ('CC(C)=CC1C(C(=O)OCc2coc(Cc3ccccc3)c2)C1(C)C (stereo not drawn)', 'inactive'),
  ('Nc1cnn(-c2ccccc2)c(=O)c1Cl', 'inactive'),
  ('CCOc1cc(C(C)(C)C)ccc1C1COC(c2c(F)cccc2F)=N1 (stereo not drawn)', 'inactive'),
  ('CCCN(CC)CC1COC2(CCC(C(C)(C)C)CC2)O1 (stereo not drawn)', 'inactive'),
  ('CC1(C)CON(Cc2ccccc2Cl)C1=O', 'inactive'),
  ('CC(C)Nc1nc(Cl)nc(NC(C)C)n1', 'inactive'),
  ('CN=C=S', 'inactive'),
  ('CC1(C)CCC(=Cc2ccc(Cl)cc2)C1(O)Cn1cncn1 (stereo not drawn)', 'inactive'),
  ('Nc1c(Cl)c(Cl)nc(C(=O)O)c1Cl', 'inactive'),
  ('CC(C)C1(C)N=C(c2ncccc2C(=O)O)NC1=O (stereo not drawn)', 'inactive'),
  ('O=c1n(Cl)c(=O)n(Cl)c(=O)n1Cl', 'inactive');
